Biological target: N-terminally GST-tagged human full length recombinant Mps-1 kinase (Homo sapiens, UniProt P33981)
Construct: N-terminally GST-tagged human full length recombinant Mps-1 kinase; purchased Invitrogen, Karslruhe, Germany PV4071
Test: Mps-1 kinase assay (TR-FRET)
Assay type: biochemical
Details: Mps1 IC50 [nM], 10 μM ATP, 1 μM peptide substrate, 60 min at 22° C.
hey, just use condition met if measured IC50 is less than 0.3 nM, otherwise condition not met

Report whether reported IC50 is lower than 0.3 nM (strictly) for CC(C)CNc1cc(-c2ccccc2)nn2c(-c3ccc4c(N)n[nH]c4c3)cnc12
condition not met

What do we get for Cc1cc(-c2cnc3c(NC[C@H]4CC[S@+]([O-])CC4)cc(Sc4cccc(F)c4)nn23)ccc1C(=O)NC1CC1 [Example 304B] ?
condition met

What do we get for Cc1cc(-c2cnc3c(NCC(C)(C)O)cc(Nc4ccc(F)cc4F)nn23)ccc1C(=O)NC1CC1 ?
condition not met

What do we get for COc1cccc(Nc2cc(NCCC(F)(F)F)c3ncc(-c4ccc(C(=O)NC5CC5)c(C)c4)n3n2)c1C ?
condition met

What do we get for COc1ccc(Cc2cc(NCCC(F)(F)F)c3ncc(-c4ccc(C(=O)NC5CC5)c(C)c4)n3n2)cc1F ?
condition met

----------
Target: N-terminally GST-tagged human full length recombinant Mps-1 kinase (Homo sapiens, UniProt P33981)
Construct: N-terminally GST-tagged human full length recombinant Mps-1 kinase; purchased Invitrogen, Karslruhe, Germany PV4071
Sequence (P33981 1-857): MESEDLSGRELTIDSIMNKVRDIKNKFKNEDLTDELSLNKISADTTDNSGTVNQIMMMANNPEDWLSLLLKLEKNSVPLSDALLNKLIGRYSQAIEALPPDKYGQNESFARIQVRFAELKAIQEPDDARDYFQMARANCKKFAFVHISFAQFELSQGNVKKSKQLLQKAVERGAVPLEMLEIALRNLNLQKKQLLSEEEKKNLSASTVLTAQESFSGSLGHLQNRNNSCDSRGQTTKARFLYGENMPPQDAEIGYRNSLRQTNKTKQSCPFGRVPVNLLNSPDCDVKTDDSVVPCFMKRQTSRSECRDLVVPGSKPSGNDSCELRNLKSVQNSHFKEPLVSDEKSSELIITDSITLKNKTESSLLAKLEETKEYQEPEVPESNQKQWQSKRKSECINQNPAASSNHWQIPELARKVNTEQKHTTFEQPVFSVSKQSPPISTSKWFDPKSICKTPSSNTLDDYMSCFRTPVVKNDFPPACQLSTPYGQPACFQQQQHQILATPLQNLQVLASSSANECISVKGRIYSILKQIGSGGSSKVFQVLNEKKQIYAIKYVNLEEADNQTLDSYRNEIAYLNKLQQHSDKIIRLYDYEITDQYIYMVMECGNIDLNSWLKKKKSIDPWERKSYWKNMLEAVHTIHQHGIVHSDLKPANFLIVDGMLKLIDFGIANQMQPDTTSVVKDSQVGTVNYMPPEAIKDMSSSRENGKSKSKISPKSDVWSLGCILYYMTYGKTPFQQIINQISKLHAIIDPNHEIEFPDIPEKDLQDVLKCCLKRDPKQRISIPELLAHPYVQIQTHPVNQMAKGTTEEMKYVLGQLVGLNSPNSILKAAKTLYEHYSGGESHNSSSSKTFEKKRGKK
Test: Mps-1 kinase assay (TR-FRET)
Assay type: biochemical
Conditions: Mps1 IC50 [nM], 10 μM ATP, 1 μM peptide substrate, 60 min at 22° C.
Please go through the items and note down their IC50.

For Cc1cc(-c2cnc3c(NCCC(F)(F)F)cc(Oc4ccccc4)nn23)ccc1C(=O)NC1CC1 , what is its reported IC50?
< 0.7 nM

What do we get for Cc1cc(-c2cnc3c(NCCC(F)(F)F)cc(Oc4ccc(F)nc4)nn23)ccc1C(=O)NC1CC1 ?
0.1 nM

What do we get for COc1ccccc1Sc1cc(NCCC(F)(F)F)c2ncc(-c3ccc(C(=O)NC4CC4)c(C)c3)n2n1 ?
1.2 nM

What do we get for CC=C(C)c1cc(NCC(C)(C)O)c2ncc(-c3ccc(-c4cnc(C5CC5)[nH]4)cc3)n2n1 (mixture of isomers) ?
61.1 nM

What do we get for C=Cc1cccc(Nc2cc(NCC(C)(C)O)c3ncc(-c4ccc(C(=O)NC5CC5)c(C)c4)n3n2)c1 ?
0.7 nM

What do we get for Cc1cc(-c2cnc3c(NCCC(F)(F)F)cc(C4CC4)nn23)ccc1C(=O)NC1CC1 ?
1.4 nM

What do we get for CC(C)CNc1cc(-c2ccccc2F)nn2c(-c3ccc(C(=O)NC4CC4)cc3)cnc12 ?
1.5 nM

What do we get for Cc1cc(-c2cnc3c(NCC(C)C)cc(Sc4ccccc4)nn23)ccc1C(=O)NC1CC1 ?
< 1 nM

What do we get for CNc1cc(Oc2cncc(F)c2)nn2c(-c3ccc(C(=O)NC4CC4)c(C)c3)cnc12 ?
1.2 nM

What do we get for Cc1cc(-c2cnc3c(NCCN4CCN(C)CC4)cc(Oc4cccc(F)c4)nn23)ccc1C(=O)NC1CC1 ?
0.1 nM

What do we get for CNC(=O)c1ccc(-c2cnc3c(NCCC(F)(F)F)cc(Oc4cccc(F)c4)nn23)cc1C [Example 575] ?
< 1 nM

What do we get for CC(C)CNc1cc(-c2ccc(C(N)=O)cc2)nn2c(-c3ccc(C(=O)NC4CC4)cc3)cnc12 ?
2 nM

What do we get for OCc1cccc(-c2cc(NCCC(F)(F)F)c3ncc(-c4ccc(C(=S)NC5CC5)cc4)n3n2)c1 ?
1.1 nM

What do we get for CNC(=O)c1ccc(-c2cnc3c(NCCOC)cc(Oc4ccccc4C)nn23)cc1C ?
6.9 nM

What do we get for CNC(=O)c1ccc(-c2cnc3c(NCc4cccs4)cc(Cl)nn23)cc1Cl ?
338 nM

----------
Please go through the items and note down their IC50.
Target: N-terminally GST-tagged human full length recombinant Mps-1 kinase (Homo sapiens)
Construct: N-terminally GST-tagged human full length recombinant Mps-1 kinase; purchased Invitrogen, Karslruhe, Germany PV4071
Assay: Mps-1 kinase assay (TR-FRET)
Format: biochemical
Settings: Mps1 IC50 [nM], 10 μM ATP, 1 μM peptide substrate, 60 min at 22° C.
Procedure: The human kinase Mps-1 phosphorylates a biotinylated substrate peptide. Detection of the phosphorylated product is achieved by time-resolved fluorescence resonance energy transfer (TR-FRET) from Europium-labelled anti-phospho-Serine/Threonine antibody as donor to streptavidin labelled with cross-linked allophycocyanin (SA-XLent) as acceptor. Compounds are tested for their inhibition of the kinase activity. […]

For Cc1cc(-c2cnc3c(NCCC(F)(F)F)cc(S(=O)(=O)c4cccc(F)c4)nn23)ccc1C(=O)NC1CC1 [Example 83A] , what is its reported IC50?
0.2 nM

What do we get for Cc1cc(-c2cnc3c(NCC(C)(C)O)cc(Oc4cccc(F)c4)nn23)ccc1C(=O)NC1CC1 [Example 75] ?
< 0.7 nM

What do we get for Cc1cc(-c2cnc3c(NCC(C)(C)O)cc(Sc4ccccc4)nn23)ccc1C(=O)NC1CC1 [Example 214] ?
< 1 nM

All figures here come from patent US9255100B2.
